assay-protocol: yeast growth modulation, basal conditions, primary screen, YJM789 clinical isolate, OD600, 24 h (AID 1089);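 note: growth of clinical yeast isolate S. cerevisiae YJM 789 seeded 1000 cells per well; test concentration not given here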
condition-details: S. cerevisiae YJM789 growth, higher = more signal, called active from +8 up or from −8 down

| molecule | z-score |
| --- | --- |
| C=CCC(OC(C)=O)[C@@H]1[C@@H](N(Cc2cc3ccccc3o2)C(=O)Cc2ccc(OC)cc2)c2cc(OCCCO)ccc2N1C(=O)Cc1ccc2ccccc2c1 (some centres not stated) | 0.225 |
| CCCC=C(CCC)[C@@H](NC(=O)c1ccco1)c1ccc(C(=O)OC)cc1 | 1.06 |
| C=CCC(OC(C)=O)[C@@H]1[C@@H](N(Cc2cccc3ccccc23)C(=O)c2ccc(-c3ccccc3)cc2)c2cc(OCCCO)ccc2N1C(=O)c1ccc2ccccc2n1 (some centres not stated) | -0.637 |
| C=C(CCCC)/C(=C/C[C@H](OC(C)=O)c1cccc(OCCO)c1)c1cc(C(=O)OC)ccc1OC | 0.117 |
| C=CCC(OC(C)=O)[C@@H]1[C@@H](N(Cc2ccc(-c3cccc(C(F)(F)F)c3)o2)C(=O)c2cccc3ccccc23)c2cc(OCCCO)ccc2N1C(=O)c1ccc2ccccc2c1 (some centres not stated) | 0.611 |
| CC(C)(C)OC(=O)CC[C@]1(C(=O)N2CCOCC2)N=C(c2ccc(OCCCO)cc2)O[C@H]1c1ccccc1CN=[N+]=[N-] | -0.673 |
| CCOC(=O)C[C@H]1[C@H](OC(=O)c2ccc(-c3ccccc3)cc2)[C@@H](NC(=O)CC(C)C)c2cc(OCCCO)ccc2N1C(=O)Cc1ccc(OC)cc1 | -1.15 |

###

assay-protocol: HepG2 liver cancer cell viability effects, profiling panel, resazurin fluorescence, 24 h, PK04 Diversity Set (AID 1172); note: test concentration not given here
condition-details: higher = more signal

| molecule | z-score |
| --- | --- |
| CN(C)C(=O)[C@]1(Cc2ccccc2)N=C(c2ccc(OCCCO)cc2)O[C@@H]1c1ccccc1 | 0.0784 |
| CC(C)C[C@@H]1NC(=O)[C@H]2C[C@@H](C(=O)NCCCCCCNC(=O)CS)[C@@H](c3ccc(O)cc3)N2C1=O | 0.102 |
| CC(C)C[C@H]1NC(=O)[C@H](Cc2ccccc2)NC(=O)[C@@]23C(=O)N[C@@H](Cc4ccccc4)C2[C@H](C)[C@@]2(C)O[C@H]2C3/C=C/C/C=C\CNC1=O (some centres not stated) | -0.59 |
| COCCCNC(=O)[C@@H]1c2ccccc2C(=O)N(Cc2cc(C(F)(F)F)cc(C(F)(F)F)c2)[C@H]1c1ccc(CO)cc1 | -0.249 |
| [N-]=[N+]=NCc1ccccc1C[C@]1(C(=O)N2CCOCC2)N=C(c2ccc(OCCCO)cc2)O[C@H]1c1ccccc1CN=[N+]=[N-] | 0.133 |
| COCC1=C([C@H](O)CCc2ccccc2)[C@H](CO)n2c(=O)n(-c3ccccc3)c(=O)n2C1 | -0.236 |
| C=CC[C@@]12N=C(c3ccc(OCCCO)cc3)O[C@@H]1c1ccccc1N(Cc1ccccc1)C2=O | 0.157 |

###

assay-protocol: inhibitors of hydroxyurea-induced Chk1 phosphorylation, primary screen, imaging, HeLa, phospho-Chk1 antibody, percent positive cells (AID 1186)
condition-details: hydroxyurea-induced phospho-Chk1 immunofluorescence imaging, higher = more signal

| compound | z-score |
| --- | --- |
| CCCCC(=C=CC[C@H](O)c1ccc(OCCO)cc1)C[C@H](O)c1ccccn1 | 0.203 |
| Cc1c(-c2ccc(-c3ccc(Cl)c(Cl)c3)o2)nc(-c2ccccc2)c2c1CO[Si]2(C(C)C)C(C)C | 0.0151 |
| C=CC[C@@]1(C(=O)O)N=C(c2ccc(OCCCO)cc2)O[C@@H]1c1ccccc1CN=[N+]=[N-] | -0.222 |
| COCCOC(=O)N1C(=O)[C@@]2(c3cc(C#Cc4ccc(OC)cc4)ccc31)[C@H](C(=O)N1CCCCCCC1)[C@H]1C(=O)O[C@H](c3ccccc3)[C@H](c3ccccc3)N1[C@@H]2c1ccccc1OCCO | -0.0224 |
| C=C(/C(=C/C[C@@H](OC(C)=O)c1ccccc1OCCO)c1cc(C(=O)OC)ccc1OC)C(C)C | 0.689 |
| COC(=O)[C@@]1(Cc2ccc(OC)cc2)[C@H]2c3cc(C(=O)N(C)C)n(Cc4ccsc4Br)c3C[C@H]2CN1C(=O)c1ccccc1 | 0.0352 |
| CC(=O)c1ccc(C(O)C2C=CC3C(=O)NC(=O)C3N2Nc2ccc(Cl)cc2Cl)cc1 (configuration not stated) | 0.173 |
